pKi: −log10 of the molar value.
This document collects pKi values reported for Carbonic anhydrase 1 (Homo sapiens).

- SMILES RECORD: "CC1=NN(c2ccc(C)cc2)C(=O)/C1=N/Nc1cccc(S(N)(=O)=O)c1"
  SYSTEM TESTED: "Carbonic anhydrase 1 (Homo sapiens)"
  pKi: 6.42
- SMILES RECORD: "CC1=NN(c2ccc(C#N)cc2)C(=O)/C1=N/Nc1ccc(S(N)(=O)=O)cc1"
  SYSTEM TESTED: "Carbonic anhydrase 1 (Homo sapiens)"
  pKi: 6.30
- SMILES RECORD: "CC1=NN(c2ccc(C)cc2)C(=O)/C1=N/Nc1ccc(S(N)(=O)=O)cc1"
  SYSTEM TESTED: "Carbonic anhydrase 1 (Homo sapiens)"
  pKi: 6.47
- SMILES RECORD: "CC1=NN(c2ccc(Cl)cc2)C(=O)/C1=N/Nc1ccc(S(N)(=O)=O)cc1"
  SYSTEM TESTED: "Carbonic anhydrase 1 (Homo sapiens)"
  pKi: 5.06
- SMILES RECORD: "CC1=NNC(=O)/C1=N/Nc1cccc(S(N)(=O)=O)c1"
  SYSTEM TESTED: "Carbonic anhydrase 1 (Homo sapiens)"
  pKi: 6.66
- SMILES RECORD: "CC1=NN(c2ccc(Cl)cc2)C(=O)/C1=N/Nc1cccc(S(N)(=O)=O)c1"
  SYSTEM TESTED: "Carbonic anhydrase 1 (Homo sapiens)"
  pKi: 5.11
- SMILES RECORD: "CC1=NN(c2ccccc2Cl)C(=O)/C1=N/Nc1ccc(S(N)(=O)=O)cc1"
  SYSTEM TESTED: "Carbonic anhydrase 1 (Homo sapiens)"
  pKi: 5.13

====

# SYSTEM TESTED: Carbonic anhydrase 12 (Homo sapiens)
# Sequence (O43570 whole entry): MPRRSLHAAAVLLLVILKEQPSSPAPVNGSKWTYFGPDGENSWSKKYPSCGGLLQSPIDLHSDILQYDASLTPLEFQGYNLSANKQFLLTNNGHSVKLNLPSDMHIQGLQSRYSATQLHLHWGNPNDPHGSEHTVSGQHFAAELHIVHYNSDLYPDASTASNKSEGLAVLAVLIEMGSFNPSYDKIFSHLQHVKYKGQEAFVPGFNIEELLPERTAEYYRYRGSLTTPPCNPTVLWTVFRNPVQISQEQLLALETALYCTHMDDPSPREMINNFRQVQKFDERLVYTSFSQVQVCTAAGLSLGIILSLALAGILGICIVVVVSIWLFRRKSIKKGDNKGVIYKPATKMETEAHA
// returns F unless Ki is strictly below 40 nM, in which case T

- SMILES RECORD: "CC1=NNC(=O)/C1=N/Nc1ccc(S(N)(=O)=O)cc1"
  CLASS ASSIGNMENT: "F"
- SMILES RECORD: "CC1=NN(c2ccc(C#N)cc2)C(=O)/C1=N/Nc1ccc(S(N)(=O)=O)cc1"
  CLASS ASSIGNMENT: "T"
- SMILES RECORD: "CC1=NNC(=O)/C1=N/Nc1cccc(S(N)(=O)=O)c1"
  CLASS ASSIGNMENT: "F"
- SMILES RECORD: "CC1=NN(c2ccc(Cl)cc2)C(=O)/C1=N/Nc1ccc(S(N)(=O)=O)cc1"
  CLASS ASSIGNMENT: "T"

====

Each entry below carries its measured Ki, system: UniProt:Q16790.

- SMILES RECORD: "CC1=NN(c2ccccc2Cl)C(=O)/C1=N/Nc1ccc(S(N)(=O)=O)cc1"
  QUANTITY UNIT: "nM"
  Ki: 31.2
- SMILES RECORD: "CC1=NN(c2ccccc2Cl)C(=O)/C1=N/Nc1cccc(S(N)(=O)=O)c1"
  QUANTITY UNIT: "nM"
  Ki: 70.7
- SMILES RECORD: "CC1=NN(c2ccc(Cl)cc2)C(=O)/C1=N/Nc1cccc(S(N)(=O)=O)c1"
  QUANTITY UNIT: "nM"
  Ki: 40.2
- SMILES RECORD: "CC1=NN(c2ccccc2)C(=O)/C1=N/Nc1ccc(S(N)(=O)=O)cc1"
  QUANTITY UNIT: "nM"
  Ki: 8.7

====

# SYSTEM TESTED: Carbonic anhydrase 2 (Homo sapiens, UniProt P00918)
Below is a list of entries, each paired with its recorded Ki value.

- SMILES RECORD: "CC1=NN(c2ccc(C#N)cc2)C(=O)/C1=N/Nc1cccc(S(N)(=O)=O)c1"
  SYSTEM TESTED: "Carbonic anhydrase 2 (Homo sapiens, UniProt P00918)"
  Ki, nM: 0.5
- SMILES RECORD: "CC1=NN(c2ccccc2Cl)C(=O)/C1=N/Nc1cccc(S(N)(=O)=O)c1"
  SYSTEM TESTED: "Carbonic anhydrase 2 (Homo sapiens, UniProt P00918)"
  Ki, nM: 290
- SMILES RECORD: "CC1=NN(c2ccc(Cl)cc2)C(=O)/C1=N/Nc1cccc(S(N)(=O)=O)c1"
  SYSTEM TESTED: "Carbonic anhydrase 2 (Homo sapiens, UniProt P00918)"
  Ki, nM: 327
- SMILES RECORD: "CC1=NN(c2ccccc2Cl)C(=O)/C1=N/Nc1ccc(S(N)(=O)=O)cc1"
  SYSTEM TESTED: "Carbonic anhydrase 2 (Homo sapiens, UniProt P00918)"
  Ki, nM: 77.6
- SMILES RECORD: "CC1=NN(c2ccc(C#N)cc2)C(=O)/C1=N/Nc1ccc(S(N)(=O)=O)cc1"
  SYSTEM TESTED: "Carbonic anhydrase 2 (Homo sapiens, UniProt P00918)"
  Ki, nM: 59
- SMILES RECORD: "CC1=NN(c2ccc(C)cc2)C(=O)/C1=N/Nc1ccc(S(N)(=O)=O)cc1"
  SYSTEM TESTED: "Carbonic anhydrase 2 (Homo sapiens, UniProt P00918)"
  Ki, nM: 6.1
- SMILES RECORD: "CC1=NN(c2ccccc2)C(=O)/C1=N/Nc1cccc(S(N)(=O)=O)c1"
  SYSTEM TESTED: "Carbonic anhydrase 2 (Homo sapiens, UniProt P00918)"
  Ki, nM: 6.6
